# System: Ruminococcus gnavus DSM 108212
# assay_text: fold change of Tryptamine concentration vs plate DMSO controls (fold change (ratio)); higher = more amine produced, active = hit call of the paper (significant change in both replicates, either direction)
# condition_description: incubation time: 27 h, anaerobic, 37 °C
Where a name gives a salt, the structure may show the parent alone.
value_kind: fold change of Tryptamine concentration
Returns: the value as a bare number; no unit string appended.

1) C[C@H]1O[C@@H](O[C@H]2[C@@H](O)C[C@H](O[C@H]3[C@@H](O)C[C@H](O[C@H]4CC[C@@]5(C)[C@H](CC[C@@H]6[C@@H]5C[C@@H](O)[C@]5(C)[C@@H](C7=CC(=O)OC7)CC[C@]65O)C4)O[C@@H]3C)O[C@@H]2C)C[C@H](O)[C@@H]1O [Digoxin] (20 µM)
1.02
2) CCCCC(=O)O[C@H]1CC[C@H]2[C@@H]3CCc4cc(O)ccc4[C@H]3CC[C@]12C [Estradiol Valerate] (20 µM)
1
3) Cc1ncc([N+](=O)[O-])n1CCO [Metronidazole] (20 µM)
0.0917

The molecule listed as O=C(c1cc(O)c(O)c(O)c1)c1ccc(O)c(O)c1O [Exifone] (20 µM) shows fold change of Tryptamine concentration equal to 1.03

Per the record, COC(=O)C1=C(C)NC(C)=C(C(=O)OCCN2CCN(C(c3ccccc3)c3ccccc3)CC2)C1c1cccc([N+](=O)[O-])c1 (stereo not given) [Manidipine Dihydrochloride] (20 µM) has fold change of Tryptamine concentration of 0.848

Per the record, Cn1cc(C(=O)Nc2ccc(F)cc2-c2ccc(Cl)c(Cl)c2)c(C(F)F)n1 (20 µM) has fold change of Tryptamine concentration of 0.907

So, CC(=O)Nc1ccc(CC(=O)O)cc1 [Actarit] (20 µM) ? Its fold change of Tryptamine concentration was 0.992
